Data provenance: PubChem BioAssay (NCATS)

Test system: CRL-7250
test_name: qHTS assay to identify novel small-molecules to repurpose for Merkel cell carcinoma treatment (AID 1296009); further: nearly all actives have a fitted effect of over 60% in size
measurement_setup: MCC and control cell lines, CellTiter-Glo viability, 72 h; series mostly up to 92 µM
From the text: MCC is a rare and aggressive neuroendocrine skin cancer with limited treatment options. Approximately 80% of MCCs have the Merkel cell polyomavirus (MCPyV) DNA integrated into the host genome (virus-positive: VP-MCC) and viral oncogenes drive oncogenesis. The remaining MCCs are virus-negative (VN-MCC) and are caused by UV mutagenesis. […] Using cell viability as a readout (CellTiter-Glo assay) we found both overlapping and distinct drugs that can be repurposed for the treatment of VP-MCC and VN-MCC. […]
Results filed as inconclusive are left out. Calls of active or inactive are those of the source. The call rests on the fitted dose curve; in most records, active means well fitted inhibition curve with a large enough effect; inconclusive means small, poorly fitted or top-dose-only effect; inactive means flat fitted curve, though single readings scatter.
outcome_measure: outcome

// known answers, use as guide
Query: I am curious: what outcome value has been reported for "CC(C)OC(=O)N1CCC(Oc2ncnc3c2cnn3-c2ccc(S(C)(=O)=O)cc2F)CC1" ?
Result: inactive

Query: I am curious: what outcome value has been reported for "CON(C)C(=O)[C@H](O)[C@H](Cc1ccccc1)NC(=O)c1cc2cc(Cl)ccc2[nH]1" ?
Result: inactive

Query: I am curious: what outcome value has been reported for C[C@@H]1O[C@@H](O[C@H]2[C@H](OC(=O)[C@]34CCC(C)(C)C[C@H]3C3=CCC5[C@@]6(C)C[C@H](O)[C@H](O[C@@H]7O[C@H](CO)[C@@H](O)[C@H](O)[C@H]7O)[C@@](C)(CO)C6[C@H](O)C[C@@]5(C)[C@]3(C)C[C@H]4O)OC[C@H](O)[C@@H]2O)[C@H](O)[C@H](O)[C@H]1O[C@@H]1OC[C@@H](O)[C@H](O[C@H]2OC[C@](O)(CO)[C@H]2O)[C@H]1O (stereo partly drawn) ?
Result: inactive [at 9.27 µM]

Query: I am curious: what outcome value has been reported for "O=C(O)C[C@H]1CCC(=O)[C@@H]1C/C=C\CCO" ?
Result: inactive

Query: I am curious: what outcome value has been reported for "O=C(/C=C/c1ccccc1)O[C@@H]1[C@@H](CO)O[C@@](CO)(O[C@H]2O[C@H](CO)[C@@H](O)[C@H](O)[C@H]2O)[C@H]1O" ?
Result: inactive

Query: I am curious: what outcome value has been reported for "O=[N+]([O-])c1ccc(-c2nc(-c3ccc(F)cc3)c(-c3ccncc3)[nH]2)cc1" ?
Result: inactive

Query: I am curious: what outcome value has been reported for Cc1nc2ccc(CN(C)c3ccc(C(=O)NC(CCC(=O)O)C(=O)O)s3)cc2c(=O)[nH]1 (stereo not drawn) ?
Result: inactive

Query: I am curious: what outcome value has been reported for "OC[C@H]1O[C@@H](OCc2ccccc2)[C@H](O[C@@H]2OC[C@@H](O)[C@H](O)[C@H]2O)[C@@H](O)[C@@H]1O" ?
Result: inactive

---
Query: I am curious: what outcome value has been reported for CC1(C)CC[C@]2(C(=O)O[C@@H]3O[C@H](CO[C@@H]4O[C@H](CO)[C@@H](O)[C@H](O)[C@H]4O[C@@H]4O[C@H](CO)[C@@H](O)[C@H](O)[C@H]4O)[C@@H](O)[C@H](O[C@@H]4O[C@H](CO)[C@@H](O)[C@H](O)[C@H]4O)[C@H]3O)CC[C@]3(C)C(=CCC4[C@@]5(C)CC[C@@H](O)[C@@](C)(C(=O)O[C@@H]6O[C@H](CO)[C@@H](O)[C@H](O)[C@H]6O)C5CC[C@]43C)[C@@H]2C1 (stereo partly drawn) ?
Result: inactive [at 9.27 µM]

Query: I am curious: what outcome value has been reported for CC(=O)OC1CC(C)C2(CCC3(CC(=O)OC3O)O2)C2(C)CCCC(C)(C)C12 (stereo not drawn) ?
Result: inactive

Query: I am curious: what outcome value has been reported for "COc1ccc2[nH]c(-c3ccccc3)c(CCN(C)C)c2c1" ?
Result: inactive

Query: I am curious: what outcome value has been reported for CCN1CCCC1CNC(=O)c1cc(S(N)(=O)=O)ccc1OC (stereo not drawn) ?
Result: inactive

Query: I am curious: what outcome value has been reported for "CC(=O)OC/C(=C/C(=O)O)CC[C@@H]1C(C)=CC(=O)[C@@H]2C(C)(C)CCC[C@@]12C" ?
Result: inactive
